Consider the following compounds; for each one, report its IC50.
TARGET UNDER TEST: KDM5B (Homo sapiens)
Construct: Full length of KDM5B and KDM4C protein were purchased from Active Motif; purchased Active Motif 31832
Sequence (Q9UGL1 whole entry): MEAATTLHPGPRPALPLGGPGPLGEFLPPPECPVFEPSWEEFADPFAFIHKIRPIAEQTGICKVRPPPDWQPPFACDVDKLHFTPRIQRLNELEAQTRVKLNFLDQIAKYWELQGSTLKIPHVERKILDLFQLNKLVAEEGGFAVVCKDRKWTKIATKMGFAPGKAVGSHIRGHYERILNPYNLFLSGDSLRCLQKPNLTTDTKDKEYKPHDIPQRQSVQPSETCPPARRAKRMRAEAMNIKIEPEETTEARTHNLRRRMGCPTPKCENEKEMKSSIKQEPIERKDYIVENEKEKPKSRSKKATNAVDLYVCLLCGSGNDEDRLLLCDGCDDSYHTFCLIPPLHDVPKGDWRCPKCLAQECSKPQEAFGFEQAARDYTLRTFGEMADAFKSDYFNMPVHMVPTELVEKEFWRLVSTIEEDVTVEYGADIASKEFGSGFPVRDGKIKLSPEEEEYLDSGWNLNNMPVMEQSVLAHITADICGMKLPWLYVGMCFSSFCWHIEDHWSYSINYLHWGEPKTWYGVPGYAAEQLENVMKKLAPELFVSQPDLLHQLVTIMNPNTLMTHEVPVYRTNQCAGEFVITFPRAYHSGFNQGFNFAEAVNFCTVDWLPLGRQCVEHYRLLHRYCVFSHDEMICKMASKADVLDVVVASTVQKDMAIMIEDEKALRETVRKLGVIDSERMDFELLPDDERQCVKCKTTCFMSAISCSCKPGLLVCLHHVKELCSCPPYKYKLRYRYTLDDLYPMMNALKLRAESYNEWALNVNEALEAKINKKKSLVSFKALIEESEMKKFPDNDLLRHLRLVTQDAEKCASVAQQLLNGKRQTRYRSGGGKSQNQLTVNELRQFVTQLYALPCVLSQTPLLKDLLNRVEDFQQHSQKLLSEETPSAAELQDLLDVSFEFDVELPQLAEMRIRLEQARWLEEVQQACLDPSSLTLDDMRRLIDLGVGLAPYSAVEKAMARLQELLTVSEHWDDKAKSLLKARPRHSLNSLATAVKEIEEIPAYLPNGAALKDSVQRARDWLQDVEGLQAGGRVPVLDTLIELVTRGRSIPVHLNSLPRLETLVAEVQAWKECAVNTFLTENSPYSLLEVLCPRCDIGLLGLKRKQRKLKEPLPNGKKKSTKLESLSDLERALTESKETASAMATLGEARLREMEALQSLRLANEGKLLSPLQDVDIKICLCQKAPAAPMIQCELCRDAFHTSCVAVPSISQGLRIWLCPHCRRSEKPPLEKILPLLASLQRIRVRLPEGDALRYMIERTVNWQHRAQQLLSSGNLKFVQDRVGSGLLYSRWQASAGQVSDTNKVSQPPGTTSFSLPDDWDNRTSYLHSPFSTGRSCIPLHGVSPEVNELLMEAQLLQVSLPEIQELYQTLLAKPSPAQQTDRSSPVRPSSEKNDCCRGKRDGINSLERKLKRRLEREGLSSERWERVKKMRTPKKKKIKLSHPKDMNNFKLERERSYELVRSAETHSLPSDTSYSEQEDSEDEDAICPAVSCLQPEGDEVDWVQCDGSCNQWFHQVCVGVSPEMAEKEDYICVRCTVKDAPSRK
TEST NAME: biochemical

// lookup IC50 for CC(C)c1c(O)nc(-n2ccnc2)nc1-c1cnn(CC(=O)NC(CO)C(C)C)c1 (centres unmarked) [Example 115] 30 nM

Quick check: IC50 of CC(C)c1c(O)nc(-n2ccnc2)nc1-c1cnn(CC(=O)NCCN(C)CC(F)(F)F)c1 [Example 116] ? 30 nM

Would you kindly share the measured IC50 for Cc1nc(-c2cncn2C)nc(O)c1C(C)C [Example 31] ? 74 nM

Could you tell me which IC50 is on file for CC(C)c1c(O)nc(-n2ccnc2)nc1OCC(=O)O [Example 15] ? 651 nM

Form field: reported IC50 of Cc1ccc(-c2nc(-n3ccnc3)nc(O)c2C(C)C)cc1N [Example 54] 15 nM
